All figures here come from paper PMC6273267.

# measuredTarget: BuChE (E.C. 3.1.1.8) (Equus caballus)
# Sequence (P81908 whole entry): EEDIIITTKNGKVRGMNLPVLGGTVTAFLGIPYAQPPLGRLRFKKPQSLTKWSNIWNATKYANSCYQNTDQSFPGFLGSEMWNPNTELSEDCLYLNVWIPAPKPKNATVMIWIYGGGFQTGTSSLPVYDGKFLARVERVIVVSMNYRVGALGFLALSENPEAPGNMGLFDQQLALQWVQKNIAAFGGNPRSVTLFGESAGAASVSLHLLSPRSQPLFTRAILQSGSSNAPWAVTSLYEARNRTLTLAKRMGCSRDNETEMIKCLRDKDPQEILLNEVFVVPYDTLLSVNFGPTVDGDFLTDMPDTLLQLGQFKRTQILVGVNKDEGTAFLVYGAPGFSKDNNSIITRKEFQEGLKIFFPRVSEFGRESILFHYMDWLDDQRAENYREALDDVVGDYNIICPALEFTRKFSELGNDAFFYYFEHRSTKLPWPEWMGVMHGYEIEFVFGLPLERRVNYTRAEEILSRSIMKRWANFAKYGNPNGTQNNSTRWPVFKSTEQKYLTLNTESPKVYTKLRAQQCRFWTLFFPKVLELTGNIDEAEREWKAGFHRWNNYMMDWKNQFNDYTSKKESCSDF
# assayComment: biochemical
# conditionSummary: means ± SEM of three experiments; pH 8.0, 37 °C, 15 min incubation; read-out: BuChE Inhibition (IC50)
assayMetric: pIC50
# pIC50 = -log10(concentration in molar units)

Q) Output pIC50 of Cc1ccc(-c2cc(=O)c3ccccc3n2C)cc1 [Compound 2, 1-Methyl-2-p-tolylquinolin-4(1H)-one]
A) 5.03

Q) Output pIC50 of Cn1c(-c2ccc(CNCCCN3CCCCC3)cc2)cc(=O)c2ccccc21 [Compound 5c]
A) 5.94

Q) Output pIC50 of Cn1c(-c2ccc(CNCCCN3CCCC3)cc2)cc(=O)c2ccccc21 [Compound 5b]
A) 5.72

Q) Output pIC50 of Cn1c(-c2ccc(CNCCCCN3CCCC3)cc2)cc(=O)c2ccccc21 [Compound 6b]
A) 5.61
